Biological target: MurF (UniProt P11880)
Sequence (P11880 whole entry): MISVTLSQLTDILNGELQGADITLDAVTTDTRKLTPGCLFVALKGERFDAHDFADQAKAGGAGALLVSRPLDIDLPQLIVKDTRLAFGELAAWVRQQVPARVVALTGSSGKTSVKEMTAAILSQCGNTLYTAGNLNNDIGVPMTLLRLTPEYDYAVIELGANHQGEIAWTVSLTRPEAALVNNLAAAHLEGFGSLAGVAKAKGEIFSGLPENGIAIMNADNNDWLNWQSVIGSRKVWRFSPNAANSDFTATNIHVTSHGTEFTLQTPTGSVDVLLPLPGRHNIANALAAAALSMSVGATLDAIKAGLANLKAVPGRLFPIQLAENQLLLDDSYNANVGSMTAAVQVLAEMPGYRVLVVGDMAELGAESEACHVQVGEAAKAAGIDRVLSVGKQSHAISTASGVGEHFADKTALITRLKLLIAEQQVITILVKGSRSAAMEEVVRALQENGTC
Test: relative enzymatic activity vs untreated control (fraction); higher = less inhibition
Settings: 100 µM; incubation time: 2 h at 37 C
Measured Metric: relative enzymatic activity

>>> obs_value("COC1=C(OC)C(=O)C(CCCCCCCCCC[P+](c2ccccc2)(c2ccccc2)c2ccccc2)=C(C)C1=O")
0.211
>>> obs_value("CC1(C)S[C@@H]2[C@H](NC(=O)[C@H](N)c3ccccc3)C(=O)N2[C@H]1C(=O)OCOC(=O)[C@@H]1N2C(=O)C[C@H]2S(=O)(=O)C1(C)C")
1.11
>>> obs_value("CNC1C(OC2C(OC3C(O)C(O)C(NC(=N)N)C(O)C3NC(=N)N)OC(C)C2(O)CO)OC(CO)C(O)C1O.O=S(=O)(O)O (stereo not drawn)")
0.944
>>> obs_value("Nc1nc(C(=CCC(=O)O)C(=O)NC2C(=O)N3C(C(=O)O)=CCSC23)cs1 (stereo not drawn)")
0.958
>>> obs_value("COC1(NC(=O)CSCC#N)C(=O)N2C(C(=O)[O-])=C(CSc3nnnn3C)CSC21.[Na+] (stereo not drawn)")
1.01
>>> obs_value("CCn1cc(C(=O)O)c(=O)c2cc(F)c(N3CCNC(C)C3)c(F)c21.Cl (stereo not drawn)")
0.554
>>> obs_value("CC1COc2c(C3(N)CC3)c(F)cc3c(=O)c(C(=O)O)cn1c23.CS(=O)(=O)O (stereo not drawn)")
1.07
>>> obs_value("CC1CN(c2c(F)c(F)c3c(=O)c(C(=O)O)cn(C4CC4)c3c2F)CC(C)N1 (stereo not drawn)")
1.09
